// data source = ChEMBL document CHEMBL5058577

Tested on: Fibroblast
Assay: Multiplex assay against human fibroblast
Format: toxicity, cell-based
Details: 48 h, 10 µM, compound concentration 10 uM, replicate 1
Lab note: compare Population Pyknosed Nuclei (%) against 10%. Equal or greater, write met. Smaller, write not met.

Is Population Pyknosed Nuclei (%) for `CCCOc1ccc2[nH]cc(C3=CCNCC3)c2n1.Cl` at or above 10%?
met

Then this compound: `O=C1[C@H](Cc2ccc(O)cc2)N2C(=O)CCN(C(=O)NCc3ccccc3)[C@H]2CN1Cc1cccc2ccccc12`
met

Field entry: `CC(/C=C1\SC(=S)N(CCCC(=O)Nc2ccc(C(=O)O)c(O)c2)C1=O)=C\c1ccccc1`
met

Now consider `CN1CCN(c2cc(-c3ccccc3)nc(N)n2)CC1` .
met

Can you handle CCCCCC(O)/C=C/[C@H]1C(=O)CC(O)C1C/C=C\CCCC(=O)O (stereo not given in full) next?
not met

Try the compound Br.CS(=O)(=O)Nc1c(O)ccc2c1CCCC2C1=NCCN1 (stereo not given)
met

Another compound to look at: `Cc1onc(-c2ccccc2Cl)c1C(=O)N(C)c1ccc(Cl)cc1`
not met

Could you do the same for Cl.NCCc1ccc(O)c(O)c1 [DOPAMINE HYDROCHLORIDE] , please?
met

Now this one: O=C(NCCN1CCC(n2c(=O)[nH]c3cc(Cl)ccc32)CC1)c1ccc(F)cc1 [HALOPEMIDE]
met

* * *

Let's look at some compounds and their measured Population Fragmented Nuclei (%).
Test system: U2OS
Assay: Multiplex assay against U2OS
Format: toxicity, cell-based
Settings: human, 24 h, 1 µM, compound concentration 1 uM, replicate 1
Kindly answer with a numeric value in %, unit omitted.

CN[C@@H](C)C(=O)N[C@H](C(=O)N1CCC[C@H]1C(=O)Nc1snnc1-c1ccccc1)C1CCCCC1 [GDC-0152]: 21
Cc1noc(-c2ccc(-c3ccc(CC(=O)O)cc3)cc2)c1NC(=O)O[C@H](C)c1ccccc1Cl: 19
CC(C)(C)c1cc(NC(=O)Nc2ccc(-c3cn4c(n3)sc3cc(OCCN5CCOCC5)ccc34)cc2)no1 [QUIZARTINIB]: 25

Quick one: Population Fragmented Nuclei (%) for `C[C@H](N)COC(=O)[C@@H](CCCCN)NC(=O)Cc1c(-c2ccc3ccccc3c2)[nH]c2c1ccc1ccccc12` ?
22

Now consider `CN1CCN(c2cc(-c3ccccc3)nc(N)n2)CC1` and answer again.
25

Same read-out for Cl.NCCc1ccc(O)c(O)c1 [DOPAMINE HYDROCHLORIDE] ?
18

Also CCCCC1=NC2(CCCC2)C(=O)N1Cc1ccc(-c2ccccc2-c2nnn[nH]2)cc1 [IRBESARTAN] , if possible.
23

Also check CCCCCC(O)/C=C/[C@H]1C(=O)CC(O)C1C/C=C\CCCC(=O)O (some centres undefined)
27

Please give the result for CC(C)COc1ccc(CNC(=O)N(Cc2ccc(F)cc2)C2CCN(C)CC2)cc1 [PIMAVANSERIN] too.
22

* * *

Tested on: U2OS
Assay: Multiplex assay against U2OS
Assay type: toxicity, cell-based
Details: human, 48 h, 1 µM, compound concentration 1 uM, replicate 1
Population Fragmented Nuclei (%) for assorted compounds
Respond numerically; units are % and should not be typed.

CC(C)COc1ccc(CNC(=O)N(Cc2ccc(F)cc2)C2CCN(C)CC2)cc1: 19
Cc1onc(-c2ccccc2Cl)c1C(=O)N(C)c1ccc(Cl)cc1: 16
N#Cc1cc(F)cc(-c2nc(-c3ccc(F)cn3)no2)c1: 18
CCCCC(=O)N(Cc1ccc(-c2ccccc2-c2nnn[nH]2)cc1)[C@H](C(=O)O)C(C)C: 17

Now turn to the next compound.
What measured Population Fragmented Nuclei (%) goes with `CC(=O)Nc1cccc2c1c(Sc1ccc(Cl)cc1)c(C)n2CC(=O)O` ?
16

* * *

Tested on: HEK-293T
Test: Multiplex assay against HEK293T
Type: toxicity, cell-based
Conditions: human, 48 h, 10 µM, compound concentration 10 uM, replicate 1
Binary classification by Population Hoechst High Intensity Objects (%), with 6% as an inclusive lower bound for fulfilled; all other cases are not fulfilled.

Here's what some known entries look like.
Cc1cnc(-c2cc(N3CCN(C(=O)CCS(C)(=O)=O)CC3)ncc2Cl)c(C)c1: not fulfilled
Cc1sc2c(c1C)C(c1ccc(Cl)cc1)=N[C@@H](CC(=O)NCCCCCCCCNC(=O)COc1cccc3c1C(=O)N(C1CCC(=O)NC1=O)C3=O)c1nnc(C)n1-2 (stereo partly specified): fulfilled
CC[C@@H](C)Nc1nc(C)nc2c(-c3ccc(OC)nc3C)c(C)nn12: fulfilled
Cl.NCCc1ccc(O)c(O)c1 [DOPAMINE HYDROCHLORIDE]: not fulfilled

Is the recorded value of Population Hoechst High Intensity Objects (%) equal to or greater than 6% for this compound? `Cc1cccc(NC(=O)CN2CCC(c3ccccn3)CC2)c1.Cl.Cl`
not fulfilled

* * *

Known Population Mitochondria Different-Phenotype (%) of a selection of compounds
Tested on: HEK-293T
Experiment: Multiplex assay against HEK293T
Assay type: toxicity, cell-based
Settings: human, 48 h, 1 µM, compound concentration 1 uM, replicate 2
Response body: numeric value in %, unit text excluded.

Would you please look over these solved cases?
Cc1sc2c(c1C)C(c1ccc(Cl)cc1)=N[C@@H](CC(=O)NCCCCCCCCNC(=O)COc1cccc3c1C(=O)N(C1CCC(=O)NC1=O)C3=O)c1nnc(C)n1-2 (some centres undefined): 78
O=C(CCCc1ccccc1)Nc1nc2ccccc2c(=O)s1: 28
Cc1onc(-c2ccccc2Cl)c1C(=O)N(C)c1ccc(Cl)cc1: 23
NCCc1cn(S(=O)(=O)c2c(Cl)nc3sccn23)c2ccccc12.O=C(O)C(=O)O: 23
COc1cccc2c1c(NS(=O)(=O)c1ccc(Cl)s1)nn2Cc1cccc(CNC(=O)C(C)(C)O)c1: 21

Can you look up the measured Population Mitochondria Different-Phenotype (%) of `CCc1cc2cc(NS(=O)(=O)c3ccc(C#N)cc3)ccc2n(CC)c1=O` for me?
23

Param item: `Cc1c(CC(=O)O)c2cccnc2n1Cc1ccc(S(C)(=O)=O)cc1C(F)(F)F`
16

Proceed to `Cc1cnc(-c2cc(N3CCN(C(=O)CCS(C)(=O)=O)CC3)ncc2Cl)c(C)c1`
22

Now give it for `CN(C)C(=O)Cn1cc(-c2ccc(-c3cncc4ccccc34)cc2)cn1` too.
32

* * *

System: Fibroblast
Experiment: Multiplex assay against human fibroblast
Format: toxicity, cell-based
Settings: 12 h, 1 µM, compound concentration 1 uM, replicate 2
The entries below are paired with their reported Population Apoptotic (%).
Quick note: give the figure in %, leave out the unit.

Example cases with answers are listed next.
Cl.NCCc1ccc(O)c(O)c1 [DOPAMINE HYDROCHLORIDE]: 44
CN[C@@H](C)C(=O)N[C@H](C(=O)N1CCC[C@H]1C(=O)Nc1snnc1-c1ccccc1)C1CCCCC1: 33
Cc1cnc(-c2cc(N3CCN(C(=O)CCS(C)(=O)=O)CC3)ncc2Cl)c(C)c1: 31
CC[C@@H](C)Nc1nc(C)nc2c(-c3ccc(OC)nc3C)c(C)nn12: 25
Br.CS(=O)(=O)Nc1c(O)ccc2c1CCCC2C1=NCCN1 (centres undefined): 31

Entry O=C(NCCN1CCC(n2c(=O)[nH]c3cc(Cl)ccc32)CC1)c1ccc(F)cc1 [HALOPEMIDE] has what Population Apoptotic (%)?
44

* * *

Test system: Fibroblast
Experiment: Multiplex assay against human fibroblast
Type: toxicity, cell-based
Details: 48 h, 10 µM, compound concentration 10 uM, replicate 1
MEASURED_QUANTITY: Population Mitochondria Different-Phenotype (%)
Hey, just the number and the unit after it is fine.

Completed entries (count: 8):
O=C(NCCN1CCC(n2c(=O)[nH]c3cc(Cl)ccc32)CC1)c1ccc(F)cc1 [HALOPEMIDE]: 35%
Cc1noc(-c2ccc(-c3ccc(CC(=O)O)cc3)cc2)c1NC(=O)O[C@H](C)c1ccccc1Cl: 4%
N#Cc1c(Oc2cccc(OS(=O)(=O)CCCC(F)(F)F)c2)cccc1C(F)(F)F: 12%
CCCCC1=NC2(CCCC2)C(=O)N1Cc1ccc(-c2ccccc2-c2nnn[nH]2)cc1: 5%
O=C1[C@H](Cc2ccc(O)cc2)N2C(=O)CCN(C(=O)NCc3ccccc3)[C@H]2CN1Cc1cccc2ccccc12: 50%
CC(C)c1noc(N2CCC(COc3ccc(-c4ccc(S(C)(=O)=O)cc4)nc3)CC2)n1: 8%
COC[C@@H](c1ccc(C(F)(F)F)cc1)N1CCN(C2(C)CCN(C(=O)c3c(C)ncnc3C)CC2)C[C@@H]1C.O=C(O)/C=C\C(=O)O [VICRIVIROC MALEATE]: 5%
CCCOc1ccc2[nH]cc(C3=CCNCC3)c2n1.Cl: 9%

Here is the next item to consider.
So what does the record say about Population Mitochondria Different-Phenotype (%) for `CCc1cc2cc(NS(=O)(=O)c3ccc(C#N)cc3)ccc2n(CC)c1=O` ?
12%

* * *

Test system: U2OS
Test: Multiplex assay against U2OS
Format: toxicity, cell-based
Conditions: human, 24 h, 1 µM, compound concentration 1 uM, replicate 1
Population Pyknosed Nuclei (%) strictly less than 10% = yes. Otherwise no.

O=C1[C@H](Cc2ccc(O)cc2)N2C(=O)CCN(C(=O)NCc3ccccc3)[C@H]2CN1Cc1cccc2ccccc12: no
Cl.NCCc1ccc(O)c(O)c1 [DOPAMINE HYDROCHLORIDE]: no
Cc1noc(-c2ccc(-c3ccc(CC(=O)O)cc3)cc2)c1NC(=O)O[C@H](C)c1ccccc1Cl: yes
COc1ccccc1N1CCN(C[C@@H](C(=O)NC(C)(C)C)c2ccccc2)CC1.Cl.Cl: yes

Consider the molecule CC(C)(C)c1cc(NC(=O)Nc2ccc(-c3cn4c(n3)sc3cc(OCCN5CCOCC5)ccc34)cc2)no1 [QUIZARTINIB] . Is its Population Pyknosed Nuclei (%) strictly less than 10%?
no
